assay: refractive index (Na D-line) (dimensionless); conditions: 298.15 K; 101.33 kPa; Liquid; Standard Abbe refractometry
test_readout: refractive index

CC(C)O [propan-2-ol] :: 1.37497
CCO [ethanol] :: 1.35939
CCC(C)=O [butanone] :: 1.37614
CCCO [propan-1-ol] :: 1.38305

====

settings: 298.15 K; 101.33 kPa; Liquid
test_readout: mass density (kg/m3)

CCO [ethanol] :: 786.47
CCC(C)=O [butanone] :: 799.62
CC(C)O [propan-2-ol] :: 780.75
CCCO [propan-1-ol] :: 799.44
